Molecular target: T1, Extracellular domain of cyno PD1 (cPD1-ECD) (Macaca fascicularis (cynomolgus))
T1 construct: Expressed with a hexahistidine tag or as Fc fusion; also called cynoPD1-ECD; cynoPD-1-ECD
T1 chain: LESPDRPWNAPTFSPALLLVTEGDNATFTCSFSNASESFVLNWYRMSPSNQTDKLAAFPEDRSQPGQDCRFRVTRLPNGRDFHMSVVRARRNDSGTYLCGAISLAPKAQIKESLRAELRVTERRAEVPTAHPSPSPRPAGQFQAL
Assay: SPR ProteOn, captured mAb, cynoPD1-ECD analyte;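 also: ProteOn XPR36 SPR with antibodies held by anti-IgG Fc on a GLC chip, on-rate, off-rate and KD derived from a Langmuir one-to-one fit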
Recorded metric: koff (s⁻¹)

>>> numeric_result("PD1B162 (antibody, human IgG2, kappa, V domains shown, IgG2sigma/kappa; VH 42, VL 52; also called PD1H131/PD1L67) VH: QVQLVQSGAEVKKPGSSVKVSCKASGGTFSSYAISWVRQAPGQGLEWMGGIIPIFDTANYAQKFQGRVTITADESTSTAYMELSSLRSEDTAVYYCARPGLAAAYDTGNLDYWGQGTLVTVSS VL: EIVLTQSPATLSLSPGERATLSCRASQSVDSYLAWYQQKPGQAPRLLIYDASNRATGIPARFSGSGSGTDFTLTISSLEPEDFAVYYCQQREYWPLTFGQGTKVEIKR")
0.000979
>>> numeric_result("PD1B149 (antibody, human IgG2, kappa, V domains shown, IgG2sigma/kappa; VH 41, VL 50; also called PD1H24/PD1L128) VH: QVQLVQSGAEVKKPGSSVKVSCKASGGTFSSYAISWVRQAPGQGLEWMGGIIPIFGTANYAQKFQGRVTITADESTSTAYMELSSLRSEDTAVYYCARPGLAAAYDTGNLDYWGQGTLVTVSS VL: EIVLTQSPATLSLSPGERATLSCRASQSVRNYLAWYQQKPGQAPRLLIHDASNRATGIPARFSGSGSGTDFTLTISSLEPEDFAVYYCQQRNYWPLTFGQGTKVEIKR")
0.00357

The reported numbers originate from patent US20210277110A1.
